Provenance of the data: the supplement of paper PMC12317010

Experiment: collision cross section in nitrogen (drift tube, single-field); higher = larger gas-phase ion size;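 also: chemical standards at 10 µM analysed by drift tube IMS-QTOF MS in about 3.95 torr nitrogen, mean of duplicate injections differing ≤1%, mass error below 10 ppm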
Settings: ion type: [M+H]; ion source: APCI; ion mode: Positive
Some compounds, each annotated with its measured collision cross section in nitrogen.
Returns: string containing the numeric result and its unit.

Below, each entry is followed by its recorded collision cross section in nitrogen result.
# compound, collision cross section in nitrogen
measured = [
    ("CC(O)CN(CC(C)O)CC(C)O (centres undefined)", "141.3 Å²"),
    ("CCN(CC)CCNc1ccc(CNC=O)c2sc3ccc(OC)cc3c(=O)c12", "196.9 Å²"),
    ("CCN(CC)c1ccc(N=Nc2ccccc2)cc1", "165.9 Å²"),
    ("CN1CCC[C@H]1c1cccnc1 [(-)-Nicotine]", "136.5 Å²"),
    ("c1ccc(Nc2cccc3ccccc23)cc1", "149.7 Å²"),
    ("CN1C(=O)c2ccccc2C1=O [N-Methylphthalimide]", "129 Å²"),
]

Sure, the documented collision cross section in nitrogen for Cc1cc(CCC(=O)OCC(C)(C)C2OCC3(CO2)COC(C(C)(C)COC(=O)CCc2cc(C)c(O)c(C(C)(C)C)c2)OC3)cc(C(C)(C)C)c1O (centres undefined) is 268.1 Å²

Sure, the documented collision cross section in nitrogen for `CN1C(C)(C)CC(O)CC1(C)C` is 136 Å²

Sure, the documented collision cross section in nitrogen for `CCc1cc(C)cc(CC)c1-c1c(OC(=O)C(C)(C)C)n2n(c1=O)CCOCC2` is 196.5 Å²

----------
Assay: collision cross section in nitrogen (drift tube, single-field); higher = larger gas-phase ion size
Conditions: ion type: [M-H]; ion source: ESI; ion mode: Negative
readout: collision cross section in nitrogen (Å²)
The response must be a number in Å² with no trailing unit.

Below, each entry is followed by its recorded collision cross section in nitrogen result.
# compound, u, collision cross section in nitrogen
data = [
    ("Cc1cc(N=Nc2c(O)ccc3ccccc23)c(S(=O)(=O)O)cc1Cl", "Å²", 187.2),
    ("OCC(CO)(CO)COCC(CO)(CO)CO", "Å²", 154.6),
    ("O=S1(=O)OC(c2cc(Br)c(O)c(Br)c2)(c2cc(Br)c(O)c(Br)c2)c2ccccc21", "Å²", 214.2),
    ("COCc1nnc(-c2ccc[n+]([O-])c2)n1-c1c(Cl)c(Cl)cc2[nH]c(=O)c(=O)[nH]c12", "Å²", 190.9),
    ("CC(=O)CC(c1ccccc1)c1c(O)c2ccccc2oc1=O (stereo not given) [Sodium warfarin]", "Å²", 172.5),
    ("CC(C)CP(=S)(S)CC(C)C [Sodium diisobutyldithiophosphinate]", "Å²", 146.5),
]

Then this compound:
Sure, the documented collision cross section in nitrogen for O=C(Nc1ccccc1SSc1ccccc1NC(=O)c1ccccc1)c1ccccc1 [2,2'-Dibenzoylaminodiphenyl disulfide] is 206

----------
Assay: collision cross section in nitrogen (drift tube, single-field); higher = larger gas-phase ion size
Conditions: ion type: [M-H]; ion source: ESI; ion mode: Negative
Some compounds, each annotated with its measured collision cross section in nitrogen.
The response must be a number in Å² with no trailing unit.

# compound, collision cross section in nitrogen [Å²]
rows = [
    ("CNC[C@H](O)[C@@H](O)[C@H](O)[C@H](O)CO", 140.4),
    ("Nc1c(Cl)c(F)nc(OCC(=O)O)c1Cl", 141.3),
    ("CCCN(CCC)c1c([N+](=O)[O-])cc(S(C)(=O)=O)cc1[N+](=O)[O-]", 177),
]

Sure, the documented collision cross section in nitrogen for `Fc1ccccc1[C@@H](F)CO[C@H]1CC[C@H](Nc2[nH]cnc3nncc2-3)CC1` is 198.9

Sure, the documented collision cross section in nitrogen for `C[C@]12CC[C@H]3C(=CCc4cc(O)ccc43)[C@@H]1CCC2=O` is 172.2

Sure, the documented collision cross section in nitrogen for `CNC(=C[N+](=O)[O-])NCCSCc1csc(CN(C)C)n1` is 181.9

Sure, the documented collision cross section in nitrogen for `O=S(=O)(O)C(F)(F)C(F)(F)C(F)(F)C(F)(F)C(F)(F)C(F)(F)C(F)(F)C(F)(F)F` is 168.7

Sure, the documented collision cross section in nitrogen for NNC(=O)c1cccc(C(=O)NN)c1 [Isophthalyl dihydrazide] is 145
